- TARGET: Fibroblast growth factor 10 (Homo sapiens)
- EXPERIMENT: FGF10 binders on small-molecule microarrays, primary screen, biochemical, small-molecule microarray, 635 nm fluorescence (AID 1102)
- RECORDED_CONDITIONS: FGF10 binding, fluorescence 635 nm, higher = more signal
TEST_READOUT: composite z-score
Lab note: jot the number down without any unit.

Illustrative cases are given below, each with its answer.
CCCCC(=C=CC[C@@H](O)c1ccc(OCCO)cc1)C[C@@H](O)c1ccccn1 :: 0.279
NC(=O)[C@@]1(CCS(=O)(=O)c2ccccc2)COC(c2ccc(OCCCO)cc2)=N1 :: 0.19
COCCOC(=O)N1C(=O)[C@@]2(c3cc(C#CCC(C(=O)OC)C(=O)OC)ccc31)[C@H](C(=O)N1CCCCCCC1)[C@H]1C(=O)O[C@H](c3ccccc3)[C@H](c3ccccc3)N1[C@@H]2c1ccccc1OCCO :: 0.547
COc1cccc(OC)c1C(=O)O[C@H]1[C@@H]2OC(=O)[C@H](Cc3cccc(Br)c3)C/C=C/C[C@@H](Cc3cccc(Br)c3)C(=O)O[C@H]2[C@@H](OC)O[C@@H]1CO :: 0.927
COC(=O)[C@@]1(Cc2ccc(F)cc2)[C@H]2c3cc(C(=O)N4CCCC4)n(CCO)c3C[C@H]2CN1C(=O)c1ccccc1 :: 0.597
CCCCN1CC=CC23O[C@@H]4/C=C\CCC(C)OC(=O)C4[C@H]2C(=O)N(C(C)CO)[C@@H]3C1=O (some centres not stated) :: -0.816

-- ask Give recorded composite z-score. `CN(C)CCCNC(=O)[C@@H]1c2ccccc2C(=O)N(C2Cc3ccccc3C2)[C@H]1c1ccc(CO)cc1`
-- reply -0.514

-- ask Give the measured composite z-score for `COC(=O)[C@@]1(Cc2ccc(OC)cc2)[C@H]2c3cc(C(=O)N4CCCC4)n(CCc4ccc(OC)c(Br)c4)c3C[C@H]2CN1C(=O)c1ccccc1`
-- reply 0.714

-- ask Complete the entry with composite z-score for `COC(=O)[C@]1(CO)N=C(c2ccc(OCCCO)cc2)O[C@@H]1c1ccccc1CN=[N+]=[N-]`
-- reply 0.0716

-- ask Tell me measured composite z-score for CC(C)(C)N1CC=CC23O[C@@H]4/C=C\CCCOC(=O)C4[C@H]2C(=O)N(CCCCCCO)[C@@H]3C1=O (some centres not stated) please.
-- reply -0.374

-- ask Give the reported value of composite z-score for this record: `CCOC(=O)C[C@H]1[C@H](OC(=O)c2ccc(C(=O)c3ccccc3)cc2)[C@@H](NC(=O)c2ccc3ccccc3c2)c2cc(OCCCO)ccc2N1C(=O)c1ccc2ccccc2n1`
-- reply 0.388

-- ask Recall and state the measured composite z-score for `COCCn1c(C(=O)N2CCCC2)cc2c1C[C@H]1CN(C(=O)c3ccccc3)[C@@](Cc3ccccc3)(C(=O)OC)[C@@H]21` .
-- reply 1.15

---

- TARGET: Homeobox protein Hox-A13 (Mus musculus)
- EXPERIMENT: inhibitors of HoxA13-DNA binding, primary screen, biochemical, fluorescence polarization, labeled oligonucleotide (AID 1185)
- RECORDED_CONDITIONS: 15 min, higher = more signal, called active from +8 up or from −8 down
Below, each of the compounds is paired with its reported z-score value.
# answer = number (no unit)

Known results for compounds:
COCC1=C([C@H](O)CCc2ccccc2)[C@H](CO)n2c(=O)n(-c3ccccc3)c(=O)n2C1 :: -3.09
CCOC(=O)C1=CCC(c2cc3ccccc3[nH]2)N(S(=O)(=O)c2ccccc2[N+](=O)[O-])C1 (centres undefined) :: -1.5
COc1cc2c(cc1O)C(c1ccc(CN3CCCC3)cc1)N(Cc1cccc(OC(F)(F)F)c1)CC2 (centres undefined) :: -2.99
CC#CCO[Si](C#CCCCCCC)(C(C)C)C(C)C :: -2
O=C1N(Cc2ccccc2)c2ccccc2[C@H]2OC(c3ccc(OCCCO)cc3)=N[C@@]12Cc1ccccc1 :: -2.4
CC(C)C(=C=CC[C@@H](O)c1ccc(OCCO)cc1)CCO :: -2.38

-- ask Please supply the value of reported z-score for the item CC(C)C[C@H]1NC(=O)[C@H](Cc2ccccc2)NC(=O)[C@@]23C(=O)N[C@@H](Cc4ccccc4)C2[C@H](C)[C@@]2(C)O[C@H]2C3/C=C/C/C=C\CNC1=O (some centres undefined)
-- reply -7.8

-- ask Kindly indicate its recorded z-score. Item: C=CCC(OC(C)=O)[C@@H]1[C@@H](N(Cc2ccc(-c3ccccc3)cc2)C(=O)c2ccc(-c3ccccc3)cc2)c2cc(OCCCO)ccc2N1C(=O)c1ccc2ccccc2n1 (some centres undefined)
-- reply -0.983

-- ask Identify the reported z-score for the following entry. `CN(C)CCCCNC(=O)[C@H]1C[C@H]2C(=O)N[C@@H](Cc3ccccc3)C(=O)N2[C@H]1c1cccc(OCCO)c1`
-- reply -3.06

-- ask Tell me measured z-score for `C=C(CCCC)/C(=C/C[C@H](OC(C)=O)c1cccc(OCCO)c1)c1cc(C(=O)OC)ccc1OC` please.
-- reply -4.24

-- ask Supply measured z-score of C[C@H]1C2[C@H](Cc3ccccc3)NC(=O)[C@]23C(=O)NCC(=O)N2CCC[C@H]2C(=O)NC/C=C\C/C=C/C3[C@@H]2O[C@]12C (some centres undefined) in your reply.
-- reply -2.22

-- ask For the compound `[N-]=[N+]=NCc1ccccc1C[C@]1(C(=O)N2CCCCC2)N=C(c2ccc(OCCCO)cc2)O[C@H]1c1ccccc1` , give its reported z-score.
-- reply -4.35

-- ask # return recorded z-score for input `CN(C)C(=O)[C@]1(Cc2ccccc2)N=C(c2ccc(OCCCO)cc2)O[C@@H]1c1ccccc1`
-- reply -6.32

-- ask Return the recorded z-score value; entry: `NC(=O)NCC#Cc1ccc2c(c1)[C@]1(C(=O)N2)[C@H](C(=O)N2CCCCCCC2)[C@H]2C(=O)O[C@H](c3ccccc3)[C@H](c3ccccc3)N2[C@@H]1c1ccc(O)cc1`
-- reply -0.376

-- ask Check the records and state z-score for `C=CCNC(=O)[C@@H]1[C@H]2C(=O)O[C@H](c3ccccc3)[C@H](c3ccccc3)N2[C@H](c2ccc(O)cc2)[C@@]12C(=O)Nc1ccc(C#CC3(O)CCCCCC3)cc12`
-- reply -3.49

-- ask Supply recorded z-score for `CCCCC(=C=CC[C@@H](O)c1cccc(OCCO)c1)CCO` here.
-- reply -2.25

-- ask Identify measured z-score corresponding to Cc1ccccc1C(O)C1C=CC2C(=O)N(c3ccccc3)C(=O)C2N1Nc1ccccc1F (centres undefined)
-- reply -2.9

-- ask Determine from records and report z-score for `C=C(/C(=C/C[C@H](OC(=O)c1ccncc1)c1ccccc1OCCO)c1cc(C(=O)OC)ccc1OC)C(C)C`
-- reply -4.77

-- ask Give the value of z-score reported for the following: `COC(=O)Cn1c(C(=O)N(C)C)cc2c1C[C@H]1CN(C(=O)c3ccccc3)[C@@](Cc3ccc(OC)cc3)(C(=O)OC)[C@@H]21`
-- reply -5.22

-- ask Tell us which z-score value is on record for `C=C(C(=O)CC[C@@H](OC(C)=O)c1cccc(OCCO)c1)C(C)C`
-- reply -4.41

-- ask Tell us which z-score value is on record for CCCCN1CC=CC23O[C@@H]4C=CCOC(=O)[C@@H]4[C@H]2C(=O)N(CCO)[C@@H]3C1=O (some centres undefined)
-- reply -3.84

-- ask Answer with reported z-score of NC(=O)N1C(=O)C2C(C1=O)C1C=C(CCCO)C2C(c2ccc(CN3CCCC3)cc2)N1Cc1cccc(OC(F)(F)F)c1 (centres undefined)
-- reply -7.26

-- ask Input `C=CCOC(=O)[C@H]1[C@@H]2C(=O)O[C@@H](c3ccccc3)[C@@H](c3ccccc3)N2[C@@H](c2ccc(OCCOC(=O)[C@@H]3C[C@@H]4C(=O)N[C@@H](Cc5ccccc5)C(=O)N4[C@@H]3c3ccc(O)cc3)cc2)[C@]12C(=O)Nc1ccccc12` , output reported z-score.
-- reply 1.86

-- ask Specify reported z-score for the compound shown: CCCCCN1CC=CC23O[C@@H]4C=CCOC(=O)[C@@H]4[C@H]2C(=O)N(CCCCCO)[C@@H]3C1=O (some centres undefined)
-- reply -3.88

-- ask For the compound `COc1ccc(CC[C@H](O)c2cccc(OCC(=O)OC(C)(C)C)c2)cc1` , give its measured z-score value.
-- reply -5.52
